System: OVCAR-3
method: Growth inhibition of human OVCAR3 cells assessed as cell growth at 10 uM after 48 hrs by SRB assay
Format: functional
test settings: OVCAR-3, 48 h, read-out: Activity

smiles code | reading unit | growth at 10 µM
CCOC(=O)C[C@H]1[C@@H](O[Si](C)(C)C(C)(C)C)[C@H](n2cnc3c(NC(=O)Nc4ccccc4)ncnc32)O[C@@H]1CNC(=O)NC | % | 116
CNC(=O)NC[C@H]1O[C@@H](n2cnc3c(NC(=O)Nc4ccccc4)ncnc32)[C@H](O[Si](C)(C)C(C)(C)C)[C@@H]1CC(=O)N(C)OC | % | 100
CNC(=O)NC[C@H]1O[C@@H](n2cnc3c(NC(=O)Nc4ccccc4)ncnc32)[C@H](O[Si](C)(C)C(C)(C)C)[C@@H]1O[Si](C)(C)C(C)(C)C | % | 113
CNC(=O)OC[C@H]1O[C@@H](n2cnc3c(NC(=O)Nc4ccccc4)ncnc32)[C@H](O[Si](C)(C)C(C)(C)C)[C@@H]1O[Si](C)(C)C(C)(C)C | % | 107

* * *

Tested on: NCI-H460
method: Growth inhibition of human NCI-H460 cells assessed as cell growth at 10 uM after 48 hrs by SRB assay
Type: functional
test settings: NCI-H460, 48 h, read-out: Activity

smiles code | growth at 10 µM (%)
CNC(=O)OC[C@H]1O[C@@H](n2cnc3c(NC(=O)Nc4ccccc4)ncnc32)[C@H](O[Si](C)(C)C(C)(C)C)[C@@H]1O[Si](C)(C)C(C)(C)C | 103
CCOC(=O)C[C@H]1[C@@H](O[Si](C)(C)C(C)(C)C)[C@H](n2cnc3c(NC(=O)Nc4ccccc4)ncnc32)O[C@@H]1CNC(=O)NC | 101
CNC(=O)NC[C@H]1O[C@@H](n2cnc3c(NC(=O)Nc4ccccc4)ncnc32)[C@H](O[Si](C)(C)C(C)(C)C)[C@@H]1O[Si](C)(C)C(C)(C)C | 88
CNC(=O)NC[C@H]1O[C@@H](n2cnc3c(NC(=O)Nc4ccccc4)ncnc32)[C@H](O[Si](C)(C)C(C)(C)C)[C@@H]1CC(=O)N(C)OC | 90

* * *

# growth at 10 µM values compiled below
System: DU-145
method: Growth inhibition of human DU145 cells assessed as cell growth at 10 uM after 48 hrs by SRB assay
Type: functional
test settings: DU-145, 48 h, read-out: Activity
property measured: growth at 10 µM (%)

smiles code | target of assay | readout value
CNC(=O)OC[C@H]1O[C@@H](n2cnc3c(NC(=O)Nc4ccccc4)ncnc32)[C@H](O[Si](C)(C)C(C)(C)C)[C@@H]1O[Si](C)(C)C(C)(C)C | DU-145 | 106
CNC(=O)NC[C@H]1O[C@@H](n2cnc3c(NC(=O)Nc4ccccc4)ncnc32)[C@H](O[Si](C)(C)C(C)(C)C)[C@@H]1O[Si](C)(C)C(C)(C)C | DU-145 | 109
CCOC(=O)C[C@H]1[C@@H](O[Si](C)(C)C(C)(C)C)[C@H](n2cnc3c(NC(=O)Nc4ccccc4)ncnc32)O[C@@H]1CNC(=O)NC | DU-145 | 110
CNC(=O)NC[C@H]1O[C@@H](n2cnc3c(NC(=O)Nc4ccccc4)ncnc32)[C@H](O[Si](C)(C)C(C)(C)C)[C@@H]1CC(=O)N(C)OC | DU-145 | 104
